Listing of recorded viability, T/C by entry.
Tested on: 857933-349-R-J2-PDC complex spheroids, viability
ASSAY: Anticancer human tumor 857933-349-R-J2-PDC patient-derived colon adenocarcinoma cell line growth inhibition [GQUAD]
MEASUREMENT CONTEXT: second compound 0.316 µM; first compound 0.316 µM; stronger effect = lower value
Report only the number, with the unit % understood.

Consider the reported viability, T/C for these compounds:
COMPOUND	TARGET OF ASSAY	VALUE
CCCS(=O)(=O)Nc1ccc(F)c(C(=O)c2c[nH]c3ncc(-c4ccc(Cl)cc4)cc23)c1F + CN(C)c1ccc(Nc2c3ccc(NC(=O)CCN4CCCC4)cc3nc3cc(NC(=O)CCN4CCCC4)ccc23)cc1	857933-349-R-J2-PDC complex spheroids, viability	96.5
COc1cccc2c1C(=O)c1c(O)c3c(c(O)c1C2=O)CC(O)(C(=O)CO)CC3OC1CC(N)C(O)C(C)O1 (stereo unspecified) + Cc1cnc(CNC(=O)c2c(=O)c3ccc(N4CCCN(C)CC4)nc3n3c2sc2ccccc23)cn1	857933-349-R-J2-PDC complex spheroids, viability	11.8
O=C(c1cc(Cc2n[nH]c(=O)c3ccccc23)ccc1F)N1CCN(C(=O)C2CC2)CC1 + Cc1[nH]c2ccc(F)cc2c1-c1nc2c3cccnc3c3ncccc3c2[nH]1	857933-349-R-J2-PDC complex spheroids, viability	106
CC[C@@]1(O)C(=O)OCc2c1cc1n(c2=O)Cc2cc3c(CN(C)C)c(O)ccc3nc2-1 + CN(C)c1ccc(Nc2c3ccc(NC(=O)CCN4CCCC4)cc3nc3cc(NC(=O)CCN4CCCC4)ccc23)cc1	857933-349-R-J2-PDC complex spheroids, viability	45.1
CC(C)(O)C1CCC(Nc2ccc3ncc(-c4cccc(C(F)(F)F)c4)n3n2)CC1 (stereo unspecified) + Cc1[nH]c2ccc(F)cc2c1-c1nc2c3cccnc3c3ncccc3c2[nH]1	857933-349-R-J2-PDC complex spheroids, viability	87.3
COc1ncnc(C2CC2)c1-c1ncc2cnn(Cc3ccc(-c4nc(C(F)(F)F)cn4C(C)C)cc3)c2n1 + Cc1[nH]c2ccc(F)cc2c1-c1nc2c3cccnc3c3ncccc3c2[nH]1	857933-349-R-J2-PDC complex spheroids, viability	96.1

[in] So what's the measured viability, T/C for this one? Cc1[nH]c2ccccc2c1CCNCc1ccc(/C=C/C(=O)NO)cc1 + Cc1[nH]c2ccc(F)cc2c1-c1nc2c3cccnc3c3ncccc3c2[nH]1
[out] 59.2

[in] So what's the measured viability, T/C for this one? CC[C@@]1(O)C(=O)OCc2c1cc1n(c2=O)Cc2cc3c(CN(C)C)c(O)ccc3nc2-1 + Cc1[nH]c2ccc(F)cc2c1-c1nc2c3cccnc3c3ncccc3c2[nH]1
[out] 42.8

[in] So what's the measured viability, T/C for this one? COc1ccc([C@@H](O)c2cc(-c3ncnc4cc(N5CCOCC5)ccc34)c(F)cc2Cl)nn1 + Cc1[nH]c2ccc(F)cc2c1-c1nc2c3cccnc3c3ncccc3c2[nH]1
[out] 99.1

[in] So what's the measured viability, T/C for this one? CC1COCCN1c1cc(-c2ccnn2C)c2ccnc(-c3ccn[nH]3)c2n1 (stereo unspecified) + CN(C)c1ccc(Nc2c3ccc(NC(=O)CCN4CCCC4)cc3nc3cc(NC(=O)CCN4CCCC4)ccc23)cc1
[out] 74.7

[in] So what's the measured viability, T/C for this one? CC(C)(O)C1CCC(Nc2ccc3ncc(-c4cccc(C(F)(F)F)c4)n3n2)CC1 (stereo unspecified) + CN(C)c1ccc(Nc2c3ccc(NC(=O)CCN4CCCC4)cc3nc3cc(NC(=O)CCN4CCCC4)ccc23)cc1
[out] 87.2

---

Test system: 857933-349-R-J2-PDC complex spheroids, viability
ASSAY: Anticancer human tumor 857933-349-R-J2-PDC cell line growth inhibition [GQUAD];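 further: spheroids exposed to compounds for one week before readout; percent viability relative to vehicle DMSO wells taken as 100%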
MEASUREMENT CONTEXT: second compound 1 µM; first compound 10 µM; stronger effect = lower value
From the text: DNA G-quadruplex Stabilizer Agents in Combinations in Complex Spheroids A high-throughput screen of multi-cell type tumor spheroids was designed to identify active combinations of DNA G-quadruplex stabilizer agents and targeted small molecules. […] Compounds. […] If the clinical Cmax for an agent had not been determined, the highest concentration tested was 10 microM. […]
Listing of recorded viability, T/C by entry.
Report only the number, with the unit % understood.

MOLECULE	QUANTITY KIND	VALUE
O=C(NO)c1cnc(N2CCN(S(=O)(=O)c3ccc4ccccc4c3)CC2)nc1 + Cc1[nH]c2ccc(F)cc2c1-c1nc2c3cccnc3c3ncccc3c2[nH]1	viability, T/C	0.23
C=CC(=O)N1CCN(c2nc(=O)n(-c3c(C)ccnc3C(C)C)c3nc(-c4c(O)cccc4F)c(F)cc23)C(C)C1 (stereo unspecified) + Cc1cnc(CNC(=O)c2c(=O)c3ccc(N4CCCN(C)CC4)nc3n3c2sc2ccccc23)cn1	viability, T/C	5.94
Cc1cccc(N(C)C(=O)C2C(O)CCN2c2nc(C)cc(C(F)(F)F)c2C#N)c1 (stereo unspecified) + Cc1cnc(CNC(=O)c2c(=O)c3ccc(N4CCCN(C)CC4)nc3n3c2sc2ccccc23)cn1	viability, T/C	3.8
Nc1ccn(C2OC(CO)C(O)C2(F)F)c(=O)n1 (stereo unspecified) + Cc1cnc(CNC(=O)c2c(=O)c3ccc(N4CCCN(C)CC4)nc3n3c2sc2ccccc23)cn1	viability, T/C	1.61
CC(C)(O)C1CCC(Nc2ccc3ncc(-c4cccc(C(F)(F)F)c4)n3n2)CC1 (stereo unspecified) + Cc1cnc(CNC(=O)c2c(=O)c3ccc(N4CCCN(C)CC4)nc3n3c2sc2ccccc23)cn1	viability, T/C	0.07
CC1COCCN1c1cc(C2(O)CC3CCC(C2)O3)c2cnn(-c3ccn[nH]3)c2n1 (stereo unspecified) + CN(C)c1ccc(Nc2c3ccc(NC(=O)CCN4CCCC4)cc3nc3cc(NC(=O)CCN4CCCC4)ccc23)cc1	viability, T/C	50.1
CC(C)(O)C1CCC(Nc2ccc3ncc(-c4cccc(C(F)(F)F)c4)n3n2)CC1 (stereo unspecified) + Cc1[nH]c2ccc(F)cc2c1-c1nc2c3cccnc3c3ncccc3c2[nH]1	viability, T/C	1.82
CC(C)n1c(=O)n(C)c2cnc3cc(F)c(-c4ccc(OCCCN5CCCCC5)nc4)cc3c21 + CN(C)c1ccc(Nc2c3ccc(NC(=O)CCN4CCCC4)cc3nc3cc(NC(=O)CCN4CCCC4)ccc23)cc1	viability, T/C	94

Below: the item to evaluate.
[in] So what's the measured viability, T/C for this one? CCCS(=O)(=O)Nc1ccc(F)c(C(=O)c2c[nH]c3ncc(-c4ccc(Cl)cc4)cc23)c1F + CN(C)c1ccc(Nc2c3ccc(NC(=O)CCN4CCCC4)cc3nc3cc(NC(=O)CCN4CCCC4)ccc23)cc1
[out] 5.58

---

Test system: 857933-349-R-J2-PDC complex spheroids, viability
ASSAY: Anticancer human tumor 857933-349-R-J2-PDC cell line growth inhibition [GQUAD];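 further: spheroids exposed to compounds for one week before readout; percent viability relative to vehicle DMSO wells taken as 100%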
MEASUREMENT CONTEXT: second compound 0.316 µM; first compound 0.316 µM; stronger effect = lower value
Source text: DNA G-quadruplex Stabilizer Agents in Combinations in Complex Spheroids A high-throughput screen of multi-cell type tumor spheroids was designed to identify active combinations of DNA G-quadruplex stabilizer agents and targeted small molecules. […] Compounds. […] If the clinical Cmax for an agent had not been determined, the highest concentration tested was 10 microM. […]
QUANTITY KIND: viability, T/C (%)
Report only the number, with the unit % understood.

Consider the reported viability, T/C for these compounds:
COMPOUND	VALUE
CC[C@@]1(O)C(=O)OCc2c1cc1n(c2=O)Cc2cc3c(CN(C)C)c(O)ccc3nc2-1 + Cc1cnc(CNC(=O)c2c(=O)c3ccc(N4CCCN(C)CC4)nc3n3c2sc2ccccc23)cn1	5.04
CC1COCCN1c1cc(C2(S(C)(=N)=O)CC2)nc(-c2ccnc3[nH]ccc23)n1 (stereo not drawn) + Cc1cnc(CNC(=O)c2c(=O)c3ccc(N4CCCN(C)CC4)nc3n3c2sc2ccccc23)cn1	20.8

Below: the item to evaluate.
[in] // map CCc1c2c(nc3ccc(O)cc13)-c1cc3c(c(=O)n1C2)COC(=O)[C@]3(O)CC + CN(C)c1ccc(Nc2c3ccc(NC(=O)CCN4CCCC4)cc3nc3cc(NC(=O)CCN4CCCC4)ccc23)cc1 to recorded viability, T/C (system: 857933-349-R-J2-PDC complex spheroids, viability)
[out] 5.15

---

Listing of recorded viability, T/C by entry.
Tested on: 857933-349-R-J2-PDC complex spheroids, viability
ASSAY: Anticancer human tumor 857933-349-R-J2-PDC cell line growth inhibition [GQUAD];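 further: spheroids exposed to compounds for one week before readout; percent viability relative to vehicle DMSO wells taken as 100%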
MEASUREMENT CONTEXT: second compound 0.0316 µM; first compound 0.0316 µM; stronger effect = lower value
Report only the number, with the unit % understood.

COMPOUND	viability, T/C, %
CC(=O)O[C@H]1C(=O)[C@@]2(C)[C@H]([C@H](OC(=O)c3ccccc3)[C@]3(O)C[C@H](OC(=O)[C@H](O)[C@@H](NC(=O)c4ccccc4)c4ccccc4)C(C)=C1C3(C)C)[C@]1(OC(C)=O)CO[C@@H]1C[C@@H]2O + CN(C)c1ccc(Nc2c3ccc(NC(=O)CCN4CCCC4)cc3nc3cc(NC(=O)CCN4CCCC4)ccc23)cc1	75

Below: the item to evaluate.
[in] So what's the measured viability, T/C for this one? COc1cc(C2c3cc4c(cc3C(OC3OC5COC(C)OC5C(O)C3O)C3COC(=O)C23)OCO4)cc(OC)c1O (configuration not stated) + Cc1cnc(CNC(=O)c2c(=O)c3ccc(N4CCCN(C)CC4)nc3n3c2sc2ccccc23)cn1
[out] 66.6
